Molecular target: α3β4 nAChR (Homo sapiens, UniProt P30926+P32297)
Sequence (P32297 32-505): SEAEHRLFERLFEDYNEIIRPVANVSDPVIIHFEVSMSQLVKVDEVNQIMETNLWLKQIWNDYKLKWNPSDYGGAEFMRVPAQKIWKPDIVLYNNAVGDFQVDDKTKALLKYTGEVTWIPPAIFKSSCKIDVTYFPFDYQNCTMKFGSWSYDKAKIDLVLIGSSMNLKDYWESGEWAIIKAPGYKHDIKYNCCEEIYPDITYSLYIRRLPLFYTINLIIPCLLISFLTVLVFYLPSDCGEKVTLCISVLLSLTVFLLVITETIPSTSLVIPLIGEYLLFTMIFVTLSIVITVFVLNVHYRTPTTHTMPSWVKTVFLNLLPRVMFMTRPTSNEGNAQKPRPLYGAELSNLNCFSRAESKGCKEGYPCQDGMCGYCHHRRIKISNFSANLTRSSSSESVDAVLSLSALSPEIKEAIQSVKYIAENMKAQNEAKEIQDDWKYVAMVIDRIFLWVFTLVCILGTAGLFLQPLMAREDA
Sequence (P30926 22-498): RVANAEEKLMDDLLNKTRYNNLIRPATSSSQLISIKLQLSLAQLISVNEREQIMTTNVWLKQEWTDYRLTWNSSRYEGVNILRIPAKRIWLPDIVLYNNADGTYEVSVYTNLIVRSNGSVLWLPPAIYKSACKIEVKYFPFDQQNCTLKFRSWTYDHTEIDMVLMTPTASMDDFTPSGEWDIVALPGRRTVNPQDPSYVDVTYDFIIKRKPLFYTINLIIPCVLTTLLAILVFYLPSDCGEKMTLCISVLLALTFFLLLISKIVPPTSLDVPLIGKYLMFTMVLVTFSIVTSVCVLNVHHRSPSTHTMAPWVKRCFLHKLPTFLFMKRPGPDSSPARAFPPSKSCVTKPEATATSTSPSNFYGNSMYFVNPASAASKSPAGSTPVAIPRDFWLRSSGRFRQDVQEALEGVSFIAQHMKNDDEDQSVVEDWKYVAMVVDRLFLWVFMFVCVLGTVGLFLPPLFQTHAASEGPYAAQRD
Assay: nAChR functional assay, automated patch-clamp
Details: mean ± S.D.; no effect = up to 33 μM
Protocol: The following selection antibiotics were used for the cell lines: G418 (0.25 mg/ml; Sigma-Aldrich) and Zeocin^TM (0.4 mg/ml; InvivoGen, San Diego, CA, United States) for α7/Ric3 nAChR and α3β4 nAChR cells; puromycin (8 μg/ml; InvivoGen) and hygromycin B (0.4 mg/ml; Gibco) for α4β2 nAChR cells; and G418 (0.5 mg/ml), puromycin (0.25 μg/ml), and hygromycin B (0.02 mg/ml) for α6/3β2/β3 nAChR cells. […] Data were analyzed using the Patchmaster software and corrected for leak current. […]
ENDPOINT_NAME: pEC50
Answers are plain numbers, as −log10 of the molar value.

Query :: Complete the entry with pEC50 for C1=CCC(c2cccnc2)NC1 (racemic) [Anatabine, (±)-Anatabine]
Result :: 4.15
